Data provenance is paper PMC11480844.

B1: H2-Kb / E4 (parent)
chain 1: AQSVTQPDARVTVSEGASLQLRCKYSYSGTPYLFWYVQYPRQGLQLLLKYYSGDPVVQGVNGFEAEFIKSNSSFHLRKASVHWSDSAVYFCAVSAGQGGSAKLIFGEGTKLTVSS
chain 2: GGIITQTPKFLIGQEGQKLTLKCQQNFNHDTMYWYRQDSGKGLRLIYYSITENDLQKGDLSEGYDASREKKSSFSLTVTSAQKNEMAVFLCASSIWGDSYEQYFGPGTRLTVL
chain 3: not shown
chain 4: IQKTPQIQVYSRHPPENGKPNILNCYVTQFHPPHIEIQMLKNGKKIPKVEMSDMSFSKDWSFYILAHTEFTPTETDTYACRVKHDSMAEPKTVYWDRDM
chain 5: SIINFEKL

Variants of: B1
Test: % of reporter cells activated (NFAT-GFP), raw; note: test concentration or dose not given here
Settings: with E4
Examples of variants with documented ratio to parent follow.
result.type: ratio to parent

INSERT INTO assay_data (variant_string, value_measured) VALUES
  ('chain 5 K7C', 1.32),
  ('chain 5 I2K', 0.746),
  ('chain 5 N4A', 0.889),
  ('chain 5 K7E', 0.873);
